- target of assay: N119^3.35A CXCR4 (Homo sapiens, UniProt P61073, N119A)
- Sequence (P61073 whole entry N119A): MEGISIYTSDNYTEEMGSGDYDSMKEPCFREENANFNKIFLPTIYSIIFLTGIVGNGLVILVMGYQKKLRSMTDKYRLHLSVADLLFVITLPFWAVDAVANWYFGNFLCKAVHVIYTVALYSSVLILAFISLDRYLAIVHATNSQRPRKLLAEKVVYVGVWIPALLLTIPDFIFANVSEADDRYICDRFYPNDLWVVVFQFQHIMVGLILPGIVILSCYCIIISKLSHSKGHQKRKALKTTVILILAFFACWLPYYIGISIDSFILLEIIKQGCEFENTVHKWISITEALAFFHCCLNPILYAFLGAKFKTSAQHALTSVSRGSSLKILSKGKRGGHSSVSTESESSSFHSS
- Assay type: cell-based
- particulars: dose-response without CXCL12; classification at 1 μM by one-way ANOVA vs DMSO
measurement kind: functional classification on the N119^3.35A CAM

Cl.c1nc2c(NCC3CCC(CNCCCNC4CCCCC4)CC3)nc(N3CCNCC3)nc2[nH]1 (stereo not shown) [Compound B7] = neutral antagonists
Cl.c1nc2c(NCc3cn(CCCNCCCNC4CCCCC4)nn3)nc(N3CCNCC3)nc2[nH]1 [CX0298] = neutral antagonists

###

- assay remarks: Cytotoxicity, methylene blue, 72 hours
- Format: cell-based
- particulars: human, CEM cells (acute lymphoblastic lymphoma)
measurement kind: CC50 at 72 h

Cl.c1nc2c(NCc3cn(CCCNCCCNC4CCCCC4)nn3)nc(N3CCNCC3)nc2[nH]1 [CX0298] = > 50 µM

# CC50 at 72 h of Cl.c1nc2c(NCC3CCC(CNCCCNC4CCCCC4)CC3)nc(N3CCNCC3)nc2[nH]1 (centres unmarked) [Compound B7] = > 50 µM
